molecular target: amaranthin (Amaranthus caudatus)
Sequence (Q71QF2 entry or part of it): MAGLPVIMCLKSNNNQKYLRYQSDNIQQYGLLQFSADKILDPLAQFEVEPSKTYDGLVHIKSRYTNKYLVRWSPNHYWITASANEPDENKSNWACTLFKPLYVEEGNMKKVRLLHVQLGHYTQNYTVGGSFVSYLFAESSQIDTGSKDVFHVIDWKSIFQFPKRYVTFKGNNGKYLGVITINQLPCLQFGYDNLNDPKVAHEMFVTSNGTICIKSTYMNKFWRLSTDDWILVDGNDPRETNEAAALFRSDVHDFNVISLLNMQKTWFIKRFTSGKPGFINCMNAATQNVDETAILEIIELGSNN
MEASURE NAME: pIC50
Scale note: pIC50 = -log10(concentration in M).

Field request: pIC50 | item: COC(=O)CCCCCCCCO[C@H]1O[C@H](CO)[C@H](O)[C@H](O[C@@H]2O[C@H](CO)[C@H](O)[C@H](O)[C@H]2O)[C@H]1NC(C)=O
5.74

Proceed to CC(=O)N[C@H]1C(O)O[C@H](CO)[C@H](O)[C@@H]1O[C@@H]1O[C@H](CO)[C@H](O)[C@H](O)[C@H]1O (some centres unmarked)
5.47

Proceed to CC(=O)N[C@H]1[C@H](O[C@H]2[C@@H](O)[C@@H](CO)O[C@@H](O[C@H]3[C@@H](O)[C@@H](CO)O[C@H](OCc4ccccc4)[C@@H]3NC(C)=O)[C@@H]2O)O[C@H](CO)[C@@H](O)[C@@H]1O
4.60

Proceed to COC(=O)CCCCCCCCO[C@H]1O[C@H](CO)[C@H](O)[C@H](O[C@@H]2O[C@H](CO)[C@H](O)[C@H](O[C@]3(C(=O)O)C[C@H](O)[C@@H](NC(C)=O)[C@H]([C@H](O)[C@H](O)CO)O3)[C@H]2O)[C@H]1NC(C)=O
5.74

Proceed to C=CCO[C@@H]1O[C@H](CO)[C@H](O)[C@H](O[C@@H]2O[C@H](CO)[C@H](O)[C@H](O)[C@H]2O)[C@H]1NC(C)=O
4.47
